Experiment: Cytotoxicity against human A2780/CDDP cells assessed as survival at 10 uM after 48 hrs by MTT assay relative to control
Format: cell-based
Conditions: read-out: Survival
RECORDED ENDPOINT: viability at 48 h, 10 µM (%)
The reply should contain only the number, in %.

TEST SMILES	ENDPOINT VALUE
CCOc1ccc2c(C)cc(=O)oc2c1COC(=O)/C=C/c1ccc(OC)cc1	123

IN: Would you mind telling me what viability at 48 h, 10 µM value was observed for "CCOc1ccc2c(C)cc(=O)oc2c1COC(=O)c1cccc(N(C)C)c1" ?
OUT: 117

IN: Okay, and "COc1ccc(/C=C/C(=O)OCc2c(OC(C)C)ccc3c(C)cc(=O)oc23)cc1" ?
OUT: 131

IN: Okay, and "COc1cc(C(=O)OCc2c(OC(C)C)ccc3c(C)cc(=O)oc23)cc(OC)c1OC" ?
OUT: 65.5
